- test_method_notes: Selectivity index, ratio of CC50 for human HepG2 cells in presence of 1% FBS to MIC for Klebsiella pneumoniae isolate 224-11-C
- Type: toxicity
- experimental_setup: read-out: Selectivity Index

structure_notation	cmp	selectivity ratio
Fc1ccc2c(c1)-c1ccccc1[I+]2	=	0.33
COc1cccc2c1-c1ccccc1[I+]2	>	0.55
Cc1ccc2c(c1)[I+]c1ccccc1-2.O=S(=O)([O-])C(F)(F)F	=	0.05
N#Cc1ccc2c(c1)[I+]c1ccccc1-2	>	0.05
c1ccc2c(c1)[I+]c1c-2ccc2ccccc12	=	0.02
N#Cc1ccc2c(c1)-c1ccccc1[I+]2	>	0.32
Fc1ccc2c(c1)[I+]c1ccccc1-2	=	0.08
Clc1ccc2c(c1)-c1ccccc1[I+]2	=	0.47
c1ccc2c(c1)[I+]c1ccccc1-2	=	0.78

----------
# key: entry, value: selectivity ratio
- test_method_notes: Selectivity index, ratio of CC50 for human HepG2 cells in presence of 1% FBS to MIC for Klebsiella pneumoniae isolate M320445
- Format: toxicity
- experimental_setup: read-out: Selectivity Index
quantity_kind: selectivity ratio

structure_notation	result_value
N#Cc1ccc2c(c1)[I+]c1ccccc1-2	0.09
Clc1cccc2c1-c1ccccc1[I+]2	0.08
N#Cc1ccc2c(c1)-c1ccccc1[I+]2	0.32
Fc1ccc2c(c1)[I+]c1ccccc1-2	0.16
Fc1ccc2c(c1)-c1ccccc1[I+]2	0.67
Clc1ccc2c(c1)-c1ccccc1[I+]2	0.47
Clc1ccc2c(c1)[I+]c1ccccc1-2	0.13
Cc1cccc2c1-c1ccccc1[I+]2	0.07
COc1cccc2c1-c1ccccc1[I+]2	0.55
COc1ccc2c(c1)-c1ccccc1[I+]2	0.29
COc1ccc2c(c1)[I+]c1ccccc1-2	0.11
Fc1cccc2c1-c1ccccc1[I+]2	0.51
Cc1ccc2c(c1)-c1ccccc1[I+]2	0.52
c1ccc2c(c1)[I+]c1c-2ccc2ccccc12	0.04
Cc1ccc2c(c1)[I+]c1ccccc1-2.O=S(=O)([O-])C(F)(F)F	0.11
c1ccc2c(c1)[I+]c1ccccc1-2	0.78

----------
- test_method_notes: Cytotoxicity against human HepG2 cells after 24 hrs in presence of 1% FBS by resazurin dye based assay
- Type: cell-based
# key: entry, value: CC50 at 24 h
quantity_kind: CC50 at 24 h

structure_notation	result_value
FC(F)(F)Oc1cccc2c1-c1ccccc1[I+]2	50.3 nM
COc1ccc2c(c1)-c1ccccc1[I+]2	20200 nM
Fc1ccc(Cl)c2c1[I+]c1ccccc1-2	930 nM
Clc1ccc(Cl)c2c1[I+]c1ccccc1-2	894 nM
Clc1ccc2c(c1)-c1ccccc1[I+]2	16100 nM
Cc1cccc2c1-c1ccccc1[I+]2	2600 nM
Fc1cccc2c1-c1ccccc1[I+]2	4600 nM
Fc1cccc2c1-c1c(Cl)cccc1[I+]2	392 nM
Cc1ccc2c(c1)[I+]c1ccccc1-2.O=S(=O)([O-])C(F)(F)F	3600 nM
COc1ccc2c(c1)[I+]c1ccccc1-2	6800 nM
Fc1ccc2c(c1)-c1ccccc1[I+]2	11900 nM
Fc1ccc2c(c1)[I+]c1ccccc1-2	5900 nM
COc1ccc(Cl)c2c1[I+]c1ccccc1-2	150 nM
Cc1ccc(Cl)c2c1[I+]c1ccccc1-2	93 nM
Cc1ccc2c(c1)-c1ccccc1[I+]2	37500 nM
N#Cc1ccc2c(c1)[I+]c1ccccc1-2	3300 nM
Clc1ccc2c(c1)[I+]c1ccccc1-2	1100 nM
Fc1cccc2c1-c1c(F)cccc1[I+]2	88.6 nM
c1ccc2c(c1)[I+]c1c-2ccc2ccccc12	720 nM
N#Cc1ccc2c(c1)-c1ccccc1[I+]2	22300 nM
FC(F)(F)c1cccc2c1-c1ccccc1[I+]2	23.6 nM
Clc1cccc2c1-c1ccccc1[I+]2	660 nM
Cc1cccc2c1-c1cccc(Cl)c1[I+]2	60.1 nM
Clc1cccc2c1[I+]c1cccc(Cl)c1-2	84.6 nM
COc1cccc2c1-c1ccccc1[I+]2	38300 nM
Fc1cccc2c1-c1cccc(Cl)c1[I+]2	52.4 nM
c1ccc2c(c1)[I+]c1ccccc1-2	29200 nM
